# credit: the DeepSol protein solubility set

test: soluble on expression in E. coli; label from the status in PepcDB or PDB records
observed.property: soluble on expression in E. coli

residue_string=MGHHHHHHSHEMLPEIGEEKVAIIAPSPSDHPQFKEILQHYVEQGKEVSPSSVRADTLDEELADLLKKAGVKTLTIAPETASDKLQEVINKGIGDEEVMRAAELASTRFEKVKLYYMVGLPGESFEDVKAILEQALRVKKLVGKVEISVNPLVPKPHTPLQWMGFGGEEELREGISHLKKKLEYLRREARRAGIGADVSGFKEFAIQTILSRGDREVAEML result=soluble
residue_string=MSLKPIFGRGPSLQLRLFFAVMLSASLMLADSRLGAFSHVRFLLNSLVAPIQYAADLPRVLFDDFYDSISSHQQLRENNQLLKREVLTLKSNLLLLEQYKEENQRLRKLLGSSFLRDEKKVVTEVMAVDTSPYRHQVVIDKGRVDGVYEGQPIINEKGIVGQVTFVAAHNSRVLLLIDPNTAIPVQNIRNDIRVIASGNGQTDQIQLEHIPTSTDIEVGDMLVTSGLGGVYPEGYPVAIVSQVDKDTRREFASIKADPVVEFDRLRYLLLIWPNEDRLQKVMQADPQVLLEEEANAQEGHHHHHH result=soluble
residue_string=MAHHHHHHMPPPPPAPPPPPPPPPPPKATEGNSSSTVGGAASALFAEIRQGGDNITSRLRHVTDDQKAYKQNIQHGAVDFSDLDAKKAEAEAKRQQKQKQPETTAAEEPVTRLEGDKRWVVKHHKGTPSEPCKVTLEDVNMRHAVHIHGCDNTFVEVKGKVNTVSVVSCNKAQVILESVVSALEVLKSDSVDVTVRRFVPTAMVEKSTSVNLFLMDVEEAPNTEIVTACSSAVNVNFPTVEDPTDILERPLPEQFVSRIVRDNRGKYKIETKPNEVA result=soluble
residue_string=MLARSDRLSVVAVVEGTRKQPDPATFIGKGKAEEISQILAQTHAAMVIFNHELSPVQQRNLSMVLACRIIDRTSLILEHHHHHH result="not soluble"
residue_string=GQELPPGTYRVDIYLNNGYMATRDVTFNTGDSEQGIVPCLTRAQLASMGLNTASVAGMNLLADDACVPLTTMVQDATAHLDVGQQRLNLTIPQAFMSNRARGYIPPELWDPGINA result=soluble
residue_string=MGSDKIHHHHHHMDKSIKSNAEKFIMIYNEIDRYMRKVLDENERTGNADLVKKMAKRNKVFEEYKDELMLFARLRNSIVHNPYNAELDPIAEPHDKIIVKYGELRDKILNPPLALDTIAVKGKNIYVVTQNESVLDVMTVMKDNNYANVPVVDNLGMIVGVFSKNTVFSYMVENEGVQIRRDTKINDFKEFIPLHKHENEFFAFVSRKTLAVEIEDMFKKRIHGKKKLSLVFITETGRVKEKILGIVTPWDIAIN result="not soluble"
residue_string=VKLDDHTYQINGRVLLDDLNKKFGIEFEDSEDIDTIGGWLQSQNTNLQKDDFVDTEYDRWTITEIDNHQIIWVNLNYEFNSGRPSVNEEQEDDERD result="not soluble"

###

experiment: soluble on expression in E. coli; label from the status in PepcDB or PDB records
observed.property: soluble on expression in E. coli

residue_string=MSMNRQEISDLCVKSLEGRMVGTEAQNIENGNAFYRYFFTNFPDLRVYFKGAEKYTADDVKKSERFDKQGQRILLACHLLANVYTNEEVFKGYVRETINRHRIYKMDPALWMAFFTVFTGYLESVGCLNDQQKAAWMALGKEFNAESQTHLKNSNLPHV observed_property="soluble on expression in E. coli" result="not soluble"
residue_string=MQYINIANRGVKSLSPYQAGKPIEELERELGISNIVKLASNENPFGFPESAKKAIFEQLDKLTRYPDANGFELKQTIAKKFGVQPNQITLGNGSNDLLELFAHTFATEGDEIMYSQYAFIVYPLVTKAINAIVKEIPAKNWGHDLQGFLTALSDKTKLIYIANPNNPTGNFLTSQEIEDFLAEVPENVIVVLDEAYTEFTRSEERVDSFSLLKKYSNLIISRSLSKAYGLAGLRIGYAVSNPEIADLLNRVRQPFNCNSLALTAAVAVMNDDKFVEKVAENNRIEMRRYEDFCQKNQLDYIPSKGNFITIDFKQPAAPIYDALLREGVIVRPIAGYGMPNHLRISIGLPEENDKFFTALSKVLKFA observed_property="soluble on expression in E. coli" result="not soluble"
